assay: Rat pK; details: in vivo, po, read-out: Rat pK: T1/2 (po)
Structures can show the parent of a compound that is named as a salt.
PROPERTY LABEL: half-life (min)

molecule="Cc1c(Cl)sc2ncnc(NC3CCN(Cc4cccc(F)c4)CC3)c12.O=C(O)/C=C\\C(=O)O [Example B38]" property_label=half-life measurement=54
molecule="Fc1cc(F)cc(CN2CCC(Nc3ncnc4sc(Cl)cc34)CC2)c1.O=C(O)/C=C\\C(=O)O [Example B34]" property_label=half-life measurement=66
molecule="Fc1cccc(CN2CCC(Nc3ncnc4sc(Cl)cc34)CC2)c1.O=C(O)/C=C\\C(=O)O [Example B42]" property_label=half-life measurement=72
molecule="CC(C)Cc1cc2c(NC3CCN(C(C)c4cc(F)cc(F)c4)CC3)ncnc2s1 (stereo not shown) [Example B18, dihydrochloride]" property_label=half-life measurement=24
molecule="N#Cc1cccc(CN2CCC(Nc3ncnc4sc(Cl)cc34)CC2)c1 [Example B43, monomaleate]" property_label=half-life measurement=91.8
molecule="CC(C)c1cc2c(NC3CCN(Cc4cc(F)cc(F)c4)CC3)ncnc2s1 [Example B31, dihydrochloride]" property_label=half-life measurement=30
molecule="c1ccc(CN2CCC(Nc3ncnc4sc5c(c34)CCCC5)CC2)cc1 [Example B1]" property_label=half-life measurement=60
molecule="Fc1cc(F)cc(CN2CCC(Nc3ncnc4sccc34)CC2)c1 [Example B30, dihydrochloride]" property_label=half-life measurement=48
molecule="CC(C)Cc1cc2c(NC3CCN(C(C)c4cccc(F)c4)CC3)ncnc2s1 (stereo not shown) [Example B14, dihydrochloride]" property_label=half-life measurement=30
molecule="N#Cc1cc(CN2CCC(Nc3ncnc4sc(Cl)cc34)CC2)ccc1F [Example B50]" property_label=half-life measurement=53.4

====

molecular target: UniProt P14416; experiment: Functional activity D2L
Sequence (P14416 whole entry): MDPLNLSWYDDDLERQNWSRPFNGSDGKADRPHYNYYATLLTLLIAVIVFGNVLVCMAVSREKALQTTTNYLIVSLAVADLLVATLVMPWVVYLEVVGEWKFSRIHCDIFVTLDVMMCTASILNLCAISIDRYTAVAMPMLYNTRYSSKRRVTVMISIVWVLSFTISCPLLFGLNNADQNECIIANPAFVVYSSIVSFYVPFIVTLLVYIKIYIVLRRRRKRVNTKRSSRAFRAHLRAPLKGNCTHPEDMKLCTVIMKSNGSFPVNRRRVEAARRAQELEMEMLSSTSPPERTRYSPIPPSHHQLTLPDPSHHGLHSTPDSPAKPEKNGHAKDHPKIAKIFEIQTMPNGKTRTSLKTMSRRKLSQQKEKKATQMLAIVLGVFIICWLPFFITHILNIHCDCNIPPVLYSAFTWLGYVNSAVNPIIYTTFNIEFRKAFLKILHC
PROPERTY LABEL: IC50 (nM)

compound="Fc1cc(F)cc(CN2CCC(Nc3ncnc4sc(Cl)cc34)CC2)c1.O=C(O)/C=C\\C(=O)O [Example B34]" property_label=IC50 measurement=17.2
compound="Fc1cccc(CN2CCC(Nc3ncnc4sc(Cl)cc34)CC2)c1.O=C(O)/C=C\\C(=O)O [Example B42]" property_label=IC50 measurement=162

====

biological target: D1 (Homo sapiens, UniProt P21728); experiment: D1 binding (Ki)
Sequence (P21728 whole entry): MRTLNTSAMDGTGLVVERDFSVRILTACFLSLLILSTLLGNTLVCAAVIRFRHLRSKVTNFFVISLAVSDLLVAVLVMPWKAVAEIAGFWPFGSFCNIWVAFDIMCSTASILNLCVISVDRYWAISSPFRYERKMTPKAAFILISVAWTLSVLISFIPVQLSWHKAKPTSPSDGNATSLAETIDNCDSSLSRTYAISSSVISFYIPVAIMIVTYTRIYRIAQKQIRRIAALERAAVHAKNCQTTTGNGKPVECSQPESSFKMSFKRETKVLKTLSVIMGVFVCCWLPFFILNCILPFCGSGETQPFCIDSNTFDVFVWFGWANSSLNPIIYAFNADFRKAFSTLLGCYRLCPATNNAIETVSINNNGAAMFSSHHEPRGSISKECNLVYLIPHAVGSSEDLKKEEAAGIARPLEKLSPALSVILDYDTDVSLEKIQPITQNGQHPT
pKi: −log10 of the molar value.
PROPERTY LABEL: pKi

compound="N#Cc1cccc(CN2CCC(Nc3ncnc4sc(Cl)cc34)CC2)c1 [Example B43, monomaleate]" property_label=pKi measurement=5.92

====

Target: UniProt P21917
Sequence (P21917 1-419): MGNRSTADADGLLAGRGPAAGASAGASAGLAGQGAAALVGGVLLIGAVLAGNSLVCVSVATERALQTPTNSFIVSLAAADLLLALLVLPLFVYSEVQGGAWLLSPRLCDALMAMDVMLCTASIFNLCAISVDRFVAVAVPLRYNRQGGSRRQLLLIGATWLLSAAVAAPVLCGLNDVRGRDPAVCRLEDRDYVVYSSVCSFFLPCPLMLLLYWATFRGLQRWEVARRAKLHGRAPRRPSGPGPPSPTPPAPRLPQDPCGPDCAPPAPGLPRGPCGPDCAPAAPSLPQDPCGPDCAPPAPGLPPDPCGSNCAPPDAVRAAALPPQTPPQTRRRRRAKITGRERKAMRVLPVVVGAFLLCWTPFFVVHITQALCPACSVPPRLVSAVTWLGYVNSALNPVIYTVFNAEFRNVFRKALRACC
Test: D4 binding (Ki)
pKi: −log10 of the molar value.
PROPERTY LABEL: pKi

entry_smiles=CNC(=O)c1cccc(CN2CCC(Nc3ncnc4sc(Cl)cc34)CC2)c1 measurement=6.48

Provenance of the data: patent US20110082157A1
